Values were extracted from patent US7790721B2.

Tgt: PARP-1 (Homo sapiens)
Construct: purchased Trevigen (Gaithersburg, Md.); host or cells: E. coli
Procedure details: PARP1 assay (inhibition of PARP, [3H]-NAD+ / biotinylated histone H1, FlashPlate scintillation)
Assay type: biochemical
Condition: recombinant human PARP, 1 nM enzyme, 1.5 μM [3H]-NAD+; inhibition curves at various substrate concentrations; read-out: PARP-1 (Ki)
Reported metric: pKi
Units for pKi: none; it is -log10 of a concentration expressed in mol/L.

Problem: Name the recorded pKi for O=C(NCC(=O)N1CCOCC1)c1ccc2c(c1)[nH]c(=O)c1cccn12 .
Solution: 6.43

***
Problem: Name the recorded pKi for COC(=O)CNCc1ccc2c(c1)[nH]c(=O)c1cccn12 .
Solution: 6.27

###

Tgt: PARP-1 (Homo sapiens, UniProt P09874)
Construct: purchased Trevigen (Gaithersburg, Md.); host or cells: E. coli
Sequence (P09874 whole entry): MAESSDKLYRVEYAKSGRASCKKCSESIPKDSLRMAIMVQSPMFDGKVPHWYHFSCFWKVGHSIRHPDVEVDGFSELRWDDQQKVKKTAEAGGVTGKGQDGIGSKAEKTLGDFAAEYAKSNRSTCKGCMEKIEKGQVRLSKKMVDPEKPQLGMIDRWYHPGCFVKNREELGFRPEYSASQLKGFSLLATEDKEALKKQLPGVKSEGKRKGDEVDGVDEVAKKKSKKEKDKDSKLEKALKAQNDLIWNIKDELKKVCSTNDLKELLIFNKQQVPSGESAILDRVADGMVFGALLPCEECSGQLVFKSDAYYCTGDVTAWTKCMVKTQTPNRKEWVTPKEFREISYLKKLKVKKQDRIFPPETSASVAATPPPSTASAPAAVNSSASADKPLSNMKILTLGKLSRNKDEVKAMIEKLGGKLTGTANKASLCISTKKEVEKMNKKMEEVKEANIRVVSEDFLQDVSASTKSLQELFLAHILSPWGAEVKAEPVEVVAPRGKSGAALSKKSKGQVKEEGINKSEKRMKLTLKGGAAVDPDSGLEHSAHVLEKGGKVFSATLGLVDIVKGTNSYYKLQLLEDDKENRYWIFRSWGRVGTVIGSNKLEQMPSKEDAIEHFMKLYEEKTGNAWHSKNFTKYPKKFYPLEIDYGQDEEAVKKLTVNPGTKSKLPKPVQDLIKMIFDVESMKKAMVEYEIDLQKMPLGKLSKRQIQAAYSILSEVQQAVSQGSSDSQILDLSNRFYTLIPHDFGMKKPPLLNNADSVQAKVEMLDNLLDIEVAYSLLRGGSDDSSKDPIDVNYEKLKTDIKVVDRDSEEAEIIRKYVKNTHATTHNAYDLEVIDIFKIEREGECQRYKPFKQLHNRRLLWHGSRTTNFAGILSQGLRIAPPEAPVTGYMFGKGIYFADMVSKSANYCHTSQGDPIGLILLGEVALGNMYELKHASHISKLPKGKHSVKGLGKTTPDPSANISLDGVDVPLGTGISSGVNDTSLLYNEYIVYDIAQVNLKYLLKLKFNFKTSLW
Procedure details: PARP1 assay (inhibition of PARP, [3H]-NAD+ / biotinylated histone H1, FlashPlate scintillation)
Type: biochemical
Condition: recombinant human PARP, 1 nM enzyme, 1.5 μM [3H]-NAD+; inhibition curves at various substrate concentrations; read-out: PARP-1 (Ki)
Labelling field: enter 1 (yes) if recorded Ki is less than 300 nM. Enter 0 (no) if it equals or exceeds that cut-off.

Here are 6 compounds together with their reported answers.
Problem: Is Ki strictly under 300 nM for the entry O=C1NCc2cc(CN3CCCCC3)ccc2-n2cccc21 [Example 57] ?
Solution: 0 (no)

Problem: Is Ki strictly under 300 nM for the entry O=C(O)CNCc1ccc2c(c1)[nH]c(=O)c1cccn12 [Example 60] ?
Solution: 0 (no)

Problem: Is Ki strictly under 300 nM for the entry O=c1[nH]c2cc(CNC3CCCC3)ccc2n2cccc12 [Example 4] ?
Solution: 1 (yes)

Problem: Is Ki strictly under 300 nM for the entry NC1CCN(C(=O)c2ccc3c(c2)[nH]c(=O)c2cccn23)CC1 [Example 87] ?
Solution: 1 (yes)

Problem: Is Ki strictly under 300 nM for the entry O=c1[nH]c2ccc(CNC3CCCCC3)cc2n2cccc12 [Example 8] ?
Solution: 1 (yes)

Problem: Is Ki strictly under 300 nM for the entry CC(C)NCc1ccc2[nH]c(=O)c3cccn3c2c1 [Example 13] ?
Solution: 1 (yes)

***
Problem: Is Ki strictly under 300 nM for the entry O=c1[nH]c2cc(CNCC3CCCCC3)ccc2n2ccnc12 [Example 24] ?
Solution: 0 (no)

Problem: Is Ki strictly under 300 nM for the entry O=C1NCc2cc(CNC3CCCCC3)ccc2-n2cccc21 [Example 58] ?
Solution: 0 (no)

Problem: Is Ki strictly under 300 nM for the entry CC(=O)N(Cc1ccc2c(c1)[nH]c(=O)c1cccn12)C1CCC1 [Example 55] ?
Solution: 0 (no)

Problem: Is Ki strictly under 300 nM for the entry O=C(c1ccc2c(c1)[nH]c(=O)c1cccn12)N1CCCNCC1 [Example 88] ?
Solution: 0 (no)

###

Tgt: PARP-1 (Homo sapiens)
Construct: purchased Trevigen (Gaithersburg, Md.); host or cells: E. coli
Procedure details: PARP1 assay (inhibition of PARP, [3H]-NAD+ / biotinylated histone H1, FlashPlate scintillation)
Assay type: biochemical
Condition: recombinant human PARP, 1 nM enzyme, 1.5 μM [3H]-NAD+; inhibition curves at various substrate concentrations; read-out: PARP-1 (Ki)
log10(Ki) values by entry
The figures below represent log10 of Ki, where Ki is stated in nM.

Problem: Name the recorded log10(Ki) for O=C1Nc2cc(CN3CCCCC3)ccc2N2CCCCC12 (stereo not shown) .
Solution: 1.99

***
Problem: Name the recorded log10(Ki) for O=c1[nH]c2ccc(CN3CCCCC3)cc2n2cccc12 .
Solution: 1.67

Problem: Name the recorded log10(Ki) for O=C(NCCN1CCSCC1)c1ccc2c(c1)[nH]c(=O)c1cccn12 .
Solution: 1.93

Problem: Name the recorded log10(Ki) for O=C(c1ccc2c(c1)[nH]c(=O)c1cccn12)N1CCCCC1 .
Solution: 1.20

Problem: Name the recorded log10(Ki) for CC(C)N(C)Cc1ccc2c(c1)NC(=O)C1CCCCN21 (stereo not shown) .
Solution: 2.45

Problem: Name the recorded log10(Ki) for CS(=O)(=O)N(Cc1ccc2c(c1)[nH]c(=O)c1cccn12)C1CC1 .
Solution: 2.96

Problem: Name the recorded log10(Ki) for O=C1Nc2cc(CN3CCCCC3)ccc2N2CCCC12 (stereo not shown) .
Solution: 2.16
